Experiment: Biodistribution study in rats 4 h after single oral administration of POH and TMZ
Assay type: in vivo, Male Wistar rats
Conditions: male, Wistar; rat brain, 4 h after single oral dose TMZ 2 mg/kg and POH 47 mg/kg, n = 4
recorded-metric: concentration at 4 h

concentration at 4 h for Cn1nnc2c(C(N)=O)ncn2c1=O [TMZ, Temozolomide] ?
~1000 ng/mL

---

Test: Pharmacokinetic study in rats after single oral administration of POH and TMZ (plasma, UPLC-MS/MS)
Assay type: in vivo, Male Wistar rats
Settings: male, Wistar; rat plasma, single oral dose POH 47 mg/kg and TMZ 2 mg/kg, n = 6
For each of the compounds below, state its half-life.
Numbers only, in h.

For every item below, please supply its half-life.
1. NC(=O)c1[nH]cnc1N [AIC, 5‐aminoimidazole‐4‐carboxamide]
2. Cn1nnc2c(C(N)=O)ncn2c1=O [TMZ, Temozolomide]

1: 18.5; 2: 18.4

Could you share which half-life value was measured for C=C(C)[C@@H]1CC=C(C(=O)O)CC1 ?
19

---

Hi there, I'd appreciate the recorded Cmax for every entry that follows.
Assay: Pharmacokinetic study in rats after single oral administration of POH and TMZ (plasma, UPLC-MS/MS)
Type: in vivo, Male Wistar rats
Conditions: male, Wistar; rat plasma, single oral dose POH 47 mg/kg and TMZ 2 mg/kg, n = 6
Procedure: Approximately 200 μL of whole blood was collected from the tail vein of each rat. Samples were centrifuged at 3500 rpm for 10 min at 20°C to separate the plasma. Plasma samples were then subjected to liquid–liquid extraction with ACN. […] Thawed plasma samples (50 μL) were also prepared by protein precipitation. […] The supernatants were filtered and analyzed as described. […] Pharmacokinetic parameters were calculated using non‐compartmental analysis with the PKSolver plugin for Microsoft Excel. […]

- compound: "C=C(C)[C@@H]1CC=C(C(=O)O)CC1 [PA, perillic acid]"
  Cmax: "704 ng/mL"

Attention now turns to another entry.
So what does the record say about Cmax for Cn1nnc2c(C(N)=O)ncn2c1=O [TMZ, Temozolomide] ?
1450 ng/mL

---

Assay: Pharmacokinetic study in rats after single oral administration of POH and TMZ (plasma, UPLC-MS/MS)
Assay type: in vivo, Male Wistar rats
Details: male, Wistar; rat plasma, single oral dose POH 47 mg/kg
recorded-metric: Tmax

# Tmax lookup, item C=C(C)[C@@H]1CC=C(C(=O)O)CC1
≤ 30 min
